IC50, JAK1 (Homo sapiens (Human)): measured values

IC50 lookup needed for O=C(Nc1cccc2c(-c3ccnc(NC(=O)C4CC4)c3)c[nH]c12)c1nc(C(F)(F)F)cs1 , thanks.
100 to 1000 nM

---

IC50, JAK1 (Homo sapiens (Human)): measured values

O=C(Nc1cccc2c1ccn2-c1ccnc(NC(=O)C2CC2)c1)c1cc(F)cc(F)c1 [Example 44]	> 1000 nM
N#CCC(=O)Nc1cccc2c(-c3ccnc(NC(=O)C4CC4)c3)c[nH]c12 [Example 10]	< 100 nM
O=C(Nc1cccc2c1ccn2-c1ccnc(NC(=O)C2CC2)c1)c1ccnc(F)c1 [Example 52]	> 1000 nM
N#C/C(=C\c1ccccc1)C(=O)Nc1cccc2c1ccn2-c1ccnc(NC(=O)C2CC2)c1 [Example 48]	> 1000 nM
N#C/C(=C\c1ccccc1)C(=O)Nc1cccc2c(-c3ccnc(NC(=O)C4CC4)c3)c[nH]c12 [Example 22]	100 to 1000 nM
N#Cc1cc(C(=O)Nc2cccc3c(-c4ccnc(NC(=O)C5CC5)c4)c[nH]c23)ccn1 [Example 35]	100 to 1000 nM
O=C(Nc1cc(-c2c[nH]c3c(NC(=O)C4CCCCC4)cccc23)ccn1)C1CC1 [Example 3]	100 to 1000 nM
N#CC1(CC(=O)Nc2cccc3c2ccn3-c2ccnc(NC(=O)C3CC3)c2)CC1 [Example 58]	100 to 1000 nM

I'm curious: which IC50 was measured for O=C(Nc1cccc2c(-c3ccnc(NC(=O)C4CC4)c3)c[nH]c12)c1cc(F)cc(F)c1 [Example 2] tested on JAK1 (Homo sapiens (Human))?
< 100 nM

I'm curious: which IC50 was measured for N#Cc1ccc(C(=O)Nc2cccc3c(-c4ccnc(NC(=O)C5CC5)c4)c[nH]c23)cc1 [Example 27] tested on JAK1 (Homo sapiens (Human))?
100 to 1000 nM

I'm curious: which IC50 was measured for O=C(Nc1cccc2c(-c3ccnc(NC(=O)C4CC4)c3)c[nH]c12)c1ccc(Cl)nc1 [Example 32] tested on JAK1 (Homo sapiens (Human))?
100 to 1000 nM

I'm curious: which IC50 was measured for N#C/C(=C\c1cccs1)C(=O)Nc1cccc2c(-c3ccnc(NC(=O)C4CC4)c3)c[nH]c12 [Example 25] tested on JAK1 (Homo sapiens (Human))?
100 to 1000 nM

I'm curious: which IC50 was measured for O=C(Nc1cccc2c(-c3ccnc(NC(=O)C4CC4)c3)c[nH]c12)c1cc[nH]n1 [Example 33] tested on JAK1 (Homo sapiens (Human))?
100 to 1000 nM

I'm curious: which IC50 was measured for CC(C)=C(C#N)C(=O)Nc1cccc2c(-c3ccnc(NC(=O)C4CC4)c3)cn(C)c12 [Example 26] tested on JAK1 (Homo sapiens (Human))?
> 1000 nM

I'm curious: which IC50 was measured for O=C(Nc1ccc(F)cc1F)Nc1cccc2c1ccn2-c1ccnc(NC(=O)C2CC2)c1 [Example 61] tested on JAK1 (Homo sapiens (Human))?
> 1000 nM

I'm curious: which IC50 was measured for N#CCC(=O)Nc1cccc2c1ccn2-c1ccnc(NC(=O)C2CC2)c1 [Example 41] tested on JAK1 (Homo sapiens (Human))?
100 to 1000 nM

---

IC50, JAK1 (Homo sapiens (Human)): measured values

Known results for compounds:
CC(C#N)C(=O)Nc1cccc2c(-c3ccnc(NC(=O)C4CC4)c3)c[nH]c12 (stereo not shown) [Example 14]	< 100 nM
O=C(Nc1cccc2c(-c3ccnc(NC(=O)C4CC4)c3)c[nH]c12)c1cncc(F)c1 [Example 31]	< 100 nM
O=C(Nc1cccc2c(-c3ccnc(NC(=O)C4CC4)c3)c[nH]c12)c1ccnc(F)c1 [Example 4]	< 100 nM

Here's the next entry for you.
I'm curious: which IC50 was measured for COc1cc(-c2c[nH]c3c(NC(=O)C(C#N)=C(C)C)cccc23)cc(NC(=O)C2CC2)n1 [Example 19] tested on JAK1 (Homo sapiens (Human))?
> 1000 nM
